Reference for the values: ChEMBL document CHEMBL6071160

Each entry below carries its reported IC50.
Test system: Huh-7
Experiment: Antiproliferative activity against human Huh-7 cells assessed as inhibition of cell proliferation incubated for 72 hrs by MTT assay
Format: functional, cell-based
Conditions: Huh-7, 72 h

>>> assay_result("O=C(Oc1ccc2[nH]c3c(c2c1)CCN1C(=O)c2cc(F)cc(F)c2N(c2cccc(F)c2)C31)N1CCNCC1 (stereo not drawn)")
"> 1620 nM"
>>> assay_result("O=C1c2cc(F)cc(F)c2N(c2cccc(F)c2)C2c3[nH]c4ccc(OCCCN5CCCCC5)cc4c3CCN12 (stereo not drawn)")
"> 1620 nM"

Problem: Endpoint output: IC50 of O=C1c2cc(F)cc(F)c2N(c2cccc(F)c2)C2c3[nH]c4ccc(OCCN5CCCCC5)cc4c3CCN12 (stereo not drawn) . Value?
Solution: > 1620 nM
